Documented speed of sound across a set of molecules
Settings: 306.4 K; 101.33 kPa; Liquid; Pulse-echo method
Numbers only; they are read as m/s.

CCCCC(=O)[O-].C[NH2+]CCO [2-hydroxy-N-methylethanaminium pentanoate] | 1523
CC(C)C(=O)[O-].C[NH2+]CCO [2-hydroxy-N-methylethanaminium isobutyrate] | 1588
CCC(=O)[O-].C[NH2+]CCO [2-hydroxy-N-methylethanaminium propionate] | 1665.7

stdin: Quick one: speed of sound for C[NH2+]CCO.O=C[O-] [2-hydroxy-N-methylethanaminium formate] ?
stdout: 1799.3

stdin: Quick one: speed of sound for CCCC(=O)[O-].C[NH2+]CCO [N-methyl-2-hydroxyethylammonium butanoate] ?
stdout: 1588.5

###

Settings: 301.4 K; 101.33 kPa; Liquid; Pulse-echo method
± gives the expanded uncertainty stated by the source.
recorded metric: speed of sound
I'd appreciate it if you wrote the number followed by its unit.

Worked cases, speed of sound given:
CC(C)C(=O)[O-].C[NH2+]CCO [2-hydroxy-N-methylethanaminium isobutyrate] | 1602.1 ± 2.1 m/s
CCCC(=O)[O-].C[NH2+]CCO [N-methyl-2-hydroxyethylammonium butanoate] | 1604.2 ± 2.1 m/s
C[NH2+]CCO.O=C[O-] [2-hydroxy-N-methylethanaminium formate] | 1809 ± 2.2 m/s
CCCCC(=O)[O-].C[NH2+]CCO [2-hydroxy-N-methylethanaminium pentanoate] | 1538.5 ± 2.1 m/s

stdin: Quick one: speed of sound for CCC(=O)[O-].C[NH2+]CCO [2-hydroxy-N-methylethanaminium propionate] ?
stdout: 1680.3 ± 2.2 m/s

###

Settings: 300.65 K; 101.33 kPa; Liquid; Vibrating tube method
Documented mass density across a set of compounds
Numbers only; they are read as kg/m3.

Worked cases, mass density given:
CCCC(=O)[O-].C[NH2+]CCO [N-methyl-2-hydroxyethylammonium butanoate] | 1037.54
CC(C)C(=O)[O-].C[NH2+]CCO [2-hydroxy-N-methylethanaminium isobutyrate] | 1041.77
CC(=O)[O-].C[NH2+]CCO [N-methyl-2-hydroxyethylammonium acetate] | 1099.34
C[NH2+]CCO.O=C[O-] [2-hydroxy-N-methylethanaminium formate] | 1126.85

stdin: Quick one: mass density for CCCCC(=O)[O-].C[NH2+]CCO [2-hydroxy-N-methylethanaminium pentanoate] ?
stdout: 1014.52

stdin: Quick one: mass density for CCC(=O)[O-].C[NH2+]CCO [2-hydroxy-N-methylethanaminium propionate] ?
stdout: 1069.67

###

Details: 301.65 K; 101.33 kPa; Liquid; Pulse-echo method
Documented speed of sound across a set of compounds
Numbers only; they are read as m/s.

CCCCC(=O)[O-].C[NH2+]CCO [2-hydroxy-N-methylethanaminium pentanoate] | 1537.8
CC(C)C(=O)[O-].C[NH2+]CCO [2-hydroxy-N-methylethanaminium isobutyrate] | 1601.4
C[NH2+]CCO.O=C[O-] [2-hydroxy-N-methylethanaminium formate] | 1808.5

stdin: Quick one: speed of sound for CCCC(=O)[O-].C[NH2+]CCO [N-methyl-2-hydroxyethylammonium butanoate] ?
stdout: 1603.4

stdin: Quick one: speed of sound for CCC(=O)[O-].C[NH2+]CCO [2-hydroxy-N-methylethanaminium propionate] ?
stdout: 1679.6

###

Settings: 302.4 K; 101.33 kPa; Liquid; Vibrating tube method
± gives the expanded uncertainty stated by the source.
Documented mass density across a set of compounds

C[NH2+]CCO.O=C[O-] [2-hydroxy-N-methylethanaminium formate] | 1125.87 ± 2.2 kg/m3
CCC(=O)[O-].C[NH2+]CCO [2-hydroxy-N-methylethanaminium propionate] | 1068.53 ± 2.2 kg/m3
CC(C)C(=O)[O-].C[NH2+]CCO [2-hydroxy-N-methylethanaminium isobutyrate] | 1040.64 ± 2.2 kg/m3
CCCC(=O)[O-].C[NH2+]CCO [N-methyl-2-hydroxyethylammonium butanoate] | 1036.38 ± 2.2 kg/m3
CCCCC(=O)[O-].C[NH2+]CCO [2-hydroxy-N-methylethanaminium pentanoate] | 1013.36 ± 2.1 kg/m3

The record that follows has no mass density shown yet.
stdin: Quick one: mass density for CC(=O)[O-].C[NH2+]CCO [N-methyl-2-hydroxyethylammonium acetate] ?
stdout: 1098.29 ± 2.2 kg/m3
